Please go through the items and note down their median log2 fold change.
molecular target: GABARAPL2, P60520; assay: median log2 fold change of GCK-ALFA target abundance (FLAG IP / Myc IP barcode read proportion) (log2 ratio); each designed protein is fused to an ALFA-tag nanobody in HEK293 cells to bring the named protein to FLAG-tagged glucokinase (GCK); Myc marks an untargeted standard; higher = target protein stabilised (more abundant); conditions: target protein: 3xFLAG-MCP-GCK-ALFA reporter; HEK293 landing pad (RPLP)
Sequence (P60520 whole entry, the tested form may be a part): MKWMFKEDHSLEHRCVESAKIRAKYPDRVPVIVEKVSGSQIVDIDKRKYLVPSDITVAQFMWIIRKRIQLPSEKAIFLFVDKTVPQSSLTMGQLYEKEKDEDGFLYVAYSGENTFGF
# respond with the number and nothing more

Query :: Which median log2 fold change value belongs to GBRAPL2_0_7213 (protein) MEEFLKELKSLSIEEAAEKFVKKIEEMAKSGKYSLEEIEEIVEEMAKVLGEKVKKEKKEESLDIAAEAADKVREILEKIDPNLAAYAYSEIGAEIMEAAE ?
Result :: -0.118

Query :: For GBRAPL2_53_7357 (protein) MLRLSIAHPDPAVVAEALRRIFEILREAGVEAEVVVTLEDGTVVRLTGDLDEIEARVTELAAKQPVLVDIYMPDSAEETVEEMEDAALDAGATVSVERVP then?
Result :: 0.126

Query :: Can you check GBRAPL2_128_7289 (protein) MKLVTLDIDIENEEEFKLAKKVLEELAKKGSPAVADLANAALDMVEEAEKDGYNEKVSVADILSEEDAEELKKLLEELAKKYGEEKVKKIIKLEIDELPP next?
Result :: -0.0985

Query :: Follow-up item: GBRAPL2_175_7337 (protein) SLEDEVLEALIEALELLSEKADDEVSDLLDAAMALLETDGRAALPRVAELLKKASEEAKDNPELSALLEELAAAAKEFAEGGDLEEILKKAKEIIKKIKA
Result :: 0.0611

All values here come from the supplement of paper PMC12632987.
